Values compiled from paper PMC3532304.

Reported pIC50, MMNAT (Mycobacterium marinum, UniProt B2HIZ6).
Would you please state pIC50, meaning minus log10 of the concentration in mol/L, as a bare number?

CN1CCC(O)(c2ccccc2)C(C(=O)c2ccccc2)C1 (stereo not shown) [compound 1] : 5.89
CN1CCC(O)(c2ccc(Cl)cc2)C(C(=O)c2ccc(Cl)cc2)C1 (stereo not shown) [compound 2] : 6.80
CN(CCC(=O)c1ccccc1)CCC(=O)c1ccccc1 [compound 5] : 6.85

Let us move to another entry and its pIC50.
Exercise: State recorded pIC50 with MMNAT (Mycobacterium marinum, UniProt B2HIZ6), entry CC1(C)CC(N2CCC(O)(c3ccccc3)C(C(=O)c3ccccc3)C2)CC(C)(C)N1 (stereo not shown) [compound 4] , no comment.
Sequence (B2HIZ6 entry or part of it): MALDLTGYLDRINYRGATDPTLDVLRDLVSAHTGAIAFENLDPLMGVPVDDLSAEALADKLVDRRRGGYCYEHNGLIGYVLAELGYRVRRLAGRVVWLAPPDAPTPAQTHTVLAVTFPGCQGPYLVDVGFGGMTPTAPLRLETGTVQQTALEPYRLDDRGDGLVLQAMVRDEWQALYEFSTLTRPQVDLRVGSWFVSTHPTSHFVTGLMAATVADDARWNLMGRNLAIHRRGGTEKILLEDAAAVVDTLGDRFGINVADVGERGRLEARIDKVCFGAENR
Key: 5.57
